Where do the numbers come from? From ChEMBL document CHEMBL1124245.

# Target: Delta-type opioid receptor (Rattus norvegicus, UniProt P33533)
# Sequence (P33533 whole entry): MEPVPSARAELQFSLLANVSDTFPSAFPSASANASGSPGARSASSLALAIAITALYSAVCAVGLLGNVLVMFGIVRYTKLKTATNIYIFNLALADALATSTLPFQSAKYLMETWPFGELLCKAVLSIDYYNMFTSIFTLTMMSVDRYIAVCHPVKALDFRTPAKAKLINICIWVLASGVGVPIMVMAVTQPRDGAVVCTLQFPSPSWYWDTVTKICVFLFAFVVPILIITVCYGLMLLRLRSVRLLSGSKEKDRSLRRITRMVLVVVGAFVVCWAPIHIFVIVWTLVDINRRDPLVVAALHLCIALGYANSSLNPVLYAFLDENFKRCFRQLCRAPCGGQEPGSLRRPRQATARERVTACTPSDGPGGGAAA
# Assay Protocol: Inhibition of [3H]DSLET binding to delta 1 opioid receptors in rat brain membranes
# Type: cell membranes
Square brackets hold non-standard residues; d marks the D form. Peptide text beside a SMILES is read from it. azaGly = NNC(=O)O
Measured Quantity: Ki (µM)
Numbers only here, please. The scale is µM.

Note Ki for the compound shown: CCN(C(=O)CNC(=O)[C@@H](C)NC(=O)[C@@H](N)Cc1ccc(O)cc1)C(C)CC(C)C (stereo partly drawn) 3.45

Dear colleague, please send me the reported Ki for "CC(C)C[C@@H](C(=O)NCCO)N(C)C(=O)CNC(=O)[C@@H](C)NC(=O)[C@@H](N)Cc1ccc(O)cc1" when you can. 3.81

Return the recorded Ki value; entry: CC(C)C[C@H](NC(=O)[C@H](Cc1ccccc1)NC(=O)CNC(=O)NNC(=O)[C@@H](N)Cc1ccc(O)cc1)C(=O)N[C@H](C(=O)O)[C@@H](C)O (H-Y[azaGly]GFLT-OH) 0.395
